Target: Recombinant human TYK2 catalytic domain (amino acids 871-1187) (Homo sapiens, UniProt P29597)
Construct: catalytic domain (amino acids 871-1187)
Sequence (P29597 871-1187): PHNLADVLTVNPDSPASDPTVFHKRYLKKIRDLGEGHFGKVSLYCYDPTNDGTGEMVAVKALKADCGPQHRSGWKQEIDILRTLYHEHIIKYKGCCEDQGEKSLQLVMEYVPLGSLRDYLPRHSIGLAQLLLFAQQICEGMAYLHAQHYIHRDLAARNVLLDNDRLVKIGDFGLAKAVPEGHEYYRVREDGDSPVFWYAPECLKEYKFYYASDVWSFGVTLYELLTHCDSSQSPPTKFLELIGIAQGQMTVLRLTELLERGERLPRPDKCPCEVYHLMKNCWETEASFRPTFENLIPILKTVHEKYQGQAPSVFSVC
Assay: TYK2 radioactive assay polyGT substrate; note: 0.1 µM ATP
Format: biochemical
pIC50: −log10 of the molar value. Structures can show the parent of a compound that is named as a salt.
readout.label: pIC50

{"compound": "COCCO[C@@H]1CCN(C(=O)c2ccc(Nc3cc(Oc4cnc(C#N)cc4C)nc4c3ncn4C)nc2)C1", "pIC50": 8.23}
{"compound": "Cc1cc(C#N)ncc1Oc1cc(Nc2ccc(C(=O)N3CCC(O)CC3)cn2)c2ncn(C)c2n1", "pIC50": 8.60}
{"compound": "CC(C)[C@@H](Nc1cc(Nc2cc(N)ncn2)c2ncn(C)c2n1)C(F)(F)F", "pIC50": 8.52}
{"compound": "Cc1cc(C#N)ncc1Oc1cc(Nc2ccc(C(=O)N3CCOC(C#N)C3)cn2)c2ncn(C)c2n1 (stereo not shown)", "pIC50": 8.86}
{"compound": "COCCCNC(=O)c1ccc(Nc2cc(Oc3cnc(C#N)cc3C)nc3c2ncn3C)nc1", "pIC50": 8.09}
{"compound": "Cc1cc(C#N)ncc1Oc1cc(Nc2ccc(C(=O)NCC(C)O)cn2)c2ncn(C)c2n1 (stereo not shown)", "pIC50": 8.05}
{"compound": "Cn1cnc2c(Nc3cc(N)ncn3)cc(NC(C3CC3)C3CC3)nc21", "pIC50": 7.58}
{"compound": "Cc1cc(C#N)ncc1Oc1cc(Nc2ccc(CN(C)C)cn2)c2ncn(C)c2n1 [Compound 81, formate salt]", "pIC50": 8.17}

(1) Cc1cc(C#N)ncc1Oc1cc(Nc2ccc(C(=O)N3CCOC(C(F)(F)F)C3)cn2)c2ncn(C)c2n1 (stereo not shown)
(2) CC1COCCC1N(C)c1cc(Nc2cc(N)ncn2)c2ncn(C)c2n1 (stereo not shown)
(3) Cc1cc(C#N)ncc1Oc1cc(Nc2ccc(C(=O)N3C[C@H](O)[C@@H](N4CCOCC4)C3)cn2)c2ncn(C)c2n1
(4) Cc1cc(C#N)ncc1N(CCCO)c1cc(Nc2cc(N)ncn2)c2ncn(C)c2n1
(5) Cc1cc(C#N)ncc1Oc1cc(Nc2cnn(CCN3CCOCC3)c2)c2ncn(C)c2n1
Q: Sort ascending by pIC50. Please, when replying, give the labels in the order that was requested.
Ans: 2, 5, 3, 1, 4

(P) Cc1cc(C#N)ncc1Oc1cc(Nc2ccc(N3CC(CN(C)C)C3)nn2)c2ncn(C)c2n1
(Q) Cc1cc(C#N)ncc1Oc1cc(Nc2ccc(C(=O)N3CC(OC(C)C)C3)cn2)c2ncn(C)c2n1
(R) Cc1cc(C#N)ncc1Oc1cc(Nc2ccc(S(=O)(=O)C(F)F)cc2)c2ncn(C)c2n1
Q: Sort low-to-high on pIC50, please. # output: labels, in the requested order
Ans: R, P, Q
(R: 7.81, P: 8.01, Q: 8.63)
